# system-name: MAX:MAX (p21) (human, UniProt P61244-2 1-151)
# Sequence (P61244 other isoform, or with tags, fused parts or gaps): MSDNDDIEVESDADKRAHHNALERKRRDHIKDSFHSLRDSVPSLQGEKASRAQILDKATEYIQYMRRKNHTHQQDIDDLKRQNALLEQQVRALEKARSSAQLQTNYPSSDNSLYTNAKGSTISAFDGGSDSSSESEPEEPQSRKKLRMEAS
# experimental-details: protein-binding microarray (anti-MAX antibody); PBM: 15 mM Tris-HCl pH 7.5, 100 mM KCl, 0.075% NP40, 7.5 mM beta-mercaptoethanol, 375 ng/ul BSA, 8 ng/ul poly(dA-dT):(dA-dT), 550 ng complex, 60 min, room tempe; high values mean tight binding
# measurement-parameters: protein: recombinant; tags: 6xHis; chain copies: 2; label: 3' end of printed strand (linker) attached to glass slide; dsDNA, one strand shown
Over roughly 4,500 sequences, “log2 normalized fluorescence” has its median near -0.34; the highest 2% begin near 3.3. Shown is part of a subset that was picked to be rich in the highest values.
quantity-measured: binding signal

Use these answered entries as a reference point.
CCGGCTCGCACGTGGTATTAATAGCTAAGATTACTATATCGACG = 3.41 log2 normalized fluorescence
CCGGCGAGCACGTGGTATTAATAGCTAAGATTACTATATCGACG = 3 log2 normalized fluorescence
CCGGCTGGCGCATGGTATTAATAGCTAAGATTACTATATCGACG = 3.17 log2 normalized fluorescence
CCGGCTGATCGCACGTATTAATAGCTAAGATTACTATATCGACG = 0.308 log2 normalized fluorescence
CCGGCTCGGACGTGGTATTAATAGCTAAGATTACTATATCGACG = 1.17 log2 normalized fluorescence
CCGGCAGGCACGTGGTATTAATAGCTAAGATTACTATATCGACG = 3.21 log2 normalized fluorescence
CCGGCTGACTCAAGGTATTAATAGCTAAGATTACTATATCGACG = 0.208 log2 normalized fluorescence
CCGGCACGCACGTGGTATTAATAGCTAAGATTACTATATCGACG = 3.29 log2 normalized fluorescence
CCGGCTGACACGTTGGATTAATAGCTAAGATTACTATATCGACG = 3.03 log2 normalized fluorescence
CCGGCTGACTCGTGCTATTAATAGCTAAGATTACTATATCGACG = 3.13 log2 normalized fluorescence

Task: Item CCGGCAGACACGATGTATTAATAGCTAAGATTACTATATCGACG : provide binding signal
Result: 3.02 log2 normalized fluorescence

Task: Assign binding signal to the following record: CCGGCTACGACGTGGTATTAATAGCTAAGATTACTATATCGACG
Result: 2.57 log2 normalized fluorescence

Task: For CCGGCCTGCACGTGGTATTAATAGCTAAGATTACTATATCGACG , write its binding signal.
Result: 3.26 log2 normalized fluorescence

Task: Consider the sequence CCGGCTGAATAAGCGTATTAATAGCTAAGATTACTATATCGACG . State its measured binding signal.
Result: -0.651 log2 normalized fluorescence

Task: State its binding signal for this sequence: CCGGCGTGCACGTGGTATTAATAGCTAAGATTACTATATCGACG
Result: 3.47 log2 normalized fluorescence

Task: Input CCGGCTGACATTCAGTATTAATAGCTAAGATTACTATATCGACG , output reported binding signal.
Result: 0.265 log2 normalized fluorescence

Task: Answer with reported binding signal of CCGGCTGAGTGTCGGTATTAATAGCTAAGATTACTATATCGACG
Result: -0.348 log2 normalized fluorescence

Task: Recall and state the measured binding signal for CCGGCTGAAACTTGGTATTAATAGCTAAGATTACTATATCGACG .
Result: -0.705 log2 normalized fluorescence

Task: Supply measured binding signal of CCGGCTGATGTTGAGTATTAATAGCTAAGATTACTATATCGACG in your reply.
Result: -0.163 log2 normalized fluorescence

Task: Kindly indicate its recorded binding signal. Item: CCGGCCCGCACGTGGTATTAATAGCTAAGATTACTATATCGACG
Result: 3.03 log2 normalized fluorescence

Task: Please give measured binding signal of the following entry: CCGGCTGATCCTACGTATTAATAGCTAAGATTACTATATCGACG
Result: -0.737 log2 normalized fluorescence

Task: # return recorded binding signal for input CCGGCTGACCGGTAGTATTAATAGCTAAGATTACTATATCGACG
Result: -0.573 log2 normalized fluorescence

----------
Measured binding signal accompanies every entry in the list below.
# system-name: MAX:MAX (p21) (human, UniProt P61244-2 1-151)
# experimental-details: protein-binding microarray (anti-MAX antibody); PBM: 15 mM Tris-HCl pH 7.5, 100 mM KCl, 0.075% NP40, 7.5 mM beta-mercaptoethanol, 375 ng/ul BSA, 8 ng/ul poly(dA-dT):(dA-dT), 550 ng complex, 60 min, room tempe; high values mean tight binding
# measurement-parameters: protein: recombinant; tags: 6xHis; chain copies: 2; label: 3' end of printed strand (linker) attached to glass slide; dsDNA, one strand shown
Over roughly 4,500 sequences, “log2 normalized fluorescence” has its median near -0.34; the highest 2% begin near 3.3. The entries come from a sample that favours the highest values as a whole.

Consider the following illustrative entries.
CCGGCCTACACGTGGTATTAATAGCTAAGATTACTATATCGACG = 3.31 log2 normalized fluorescence
CCGGCTGAGTTGAGGTATTAATAGCTAAGATTACTATATCGACG = -0.631 log2 normalized fluorescence
CCGGCTTTCACTTGGTATTAATAGCTAAGATTACTATATCGACG = -0.636 log2 normalized fluorescence
CCGGCTACTACGTGGTATTAATAGCTAAGATTACTATATCGACG = 1.83 log2 normalized fluorescence
CCGGCTGACACGTCGAATTAATAGCTAAGATTACTATATCGACG = 1.45 log2 normalized fluorescence

Task: Identify the reported binding signal for the following entry. CCGGCTTTCACGTGGTATTAATAGCTAAGATTACTATATCGACG
Result: 3.41 log2 normalized fluorescence

Task: Read the entry CCGGCTGAGGCGGTGTATTAATAGCTAAGATTACTATATCGACG and write its reported binding signal.
Result: -0.63 log2 normalized fluorescence

Task: Indicate the recorded binding signal value for this sequence: CCGGCATAGTATACAATTTAATAGCTAAGATTACTATATCGACG
Result: 0.0214 log2 normalized fluorescence

Task: Name the recorded binding signal of the item CCGGCCTTCACGTGGTATTAATAGCTAAGATTACTATATCGACG in your answer.
Result: 3.1 log2 normalized fluorescence

Task: Report binding signal, nothing else, for this sequence: CCGGCTGAATCCCAGTATTAATAGCTAAGATTACTATATCGACG
Result: -0.681 log2 normalized fluorescence

----------
# system-name: MAX:MAX (p21) (human, UniProt P61244-2 1-151)
# experimental-details: protein-binding microarray (anti-MAX antibody); PBM: 15 mM Tris-HCl pH 7.5, 100 mM KCl, 0.075% NP40, 7.5 mM beta-mercaptoethanol, 375 ng/ul BSA, 8 ng/ul poly(dA-dT):(dA-dT), 550 ng complex, 60 min, room tempe; high values mean tight binding
# measurement-parameters: protein: recombinant; tags: 6xHis; chain copies: 2; label: 3' end of printed strand (linker) attached to glass slide; dsDNA, one strand shown
The full ranking holds about 4,500 sequences; the median of “log2 normalized fluorescence” is about -0.34, and the highest 2% start at about 3.3. What follows is part of a selection rich in the highest values, with near analogues and random picks from the rest.
Catalogue of binding signal readings, one per entry.

Known binding signal results, listed for orientation:
CCGGCCGACACGTGTTATTAATAGCTAAGATTACTATATCGACG = 3.4 log2 normalized fluorescence
CCGGCTGACTCGCTGTATTAATAGCTAAGATTACTATATCGACG = 0.114 log2 normalized fluorescence
CCGGCAGAAACGTGTTATTAATAGCTAAGATTACTATATCGACG = 2.96 log2 normalized fluorescence
CCGGCTGACAACTTGTATTAATAGCTAAGATTACTATATCGACG = -0.311 log2 normalized fluorescence
CCGGCTGACACACGTTATTAATAGCTAAGATTACTATATCGACG = 2.37 log2 normalized fluorescence
CCGGCTGAAGTTATGTATTAATAGCTAAGATTACTATATCGACG = -0.594 log2 normalized fluorescence
CCGGCTGAACCCAGGTATTAATAGCTAAGATTACTATATCGACG = -0.34 log2 normalized fluorescence
CCGGCTGACACGGTATATTAATAGCTAAGATTACTATATCGACG = 1.17 log2 normalized fluorescence

Task: Quick one: give measured binding signal for CCGGCCGACACGTGATATTAATAGCTAAGATTACTATATCGACG
Result: 3.43 log2 normalized fluorescence

Task: Answer with reported binding signal of CCGGCTGATCATATGTATTAATAGCTAAGATTACTATATCGACG
Result: 1.98 log2 normalized fluorescence

Task: Kindly indicate its recorded binding signal. Item: CCGGCTGACACGTGATATTAATAGCTAAGATTACTATATCGACG
Result: 3.05 log2 normalized fluorescence
